Tested on: A549/ATCC NSCLC
Experiment summary: NCI-60 one-dose screen, 48 h (100 = growth as untreated, 0 = no growth, -100 = all killed)
Condition notes: 10 µM unless noted
Compounds without any hit were thinned out: in the full panel of roughly 83,000, 20% have a hit.
Value kind: growth (%)

INSERT INTO results (compound, system, assay_result) VALUES
  ('C=C(C)[C@@H]1CC[C@]2(C(=O)N3CCN(C)CC3)CC[C@]3(C)[C@H](CC[C@@H]4[C@@]5(C)CCC(=O)C(C)(C)[C@@H]5CC[C@]43C)[C@@H]12', 'A549/ATCC NSCLC', 85.1),
  ('Fc1cc(C2=NNC(c3ccc[nH]3)C2)ccc1-n1ccc(C(F)(F)F)n1 (centres undefined)', 'A549/ATCC NSCLC', 68.4),
  ('Cc1cc(C)n(Nc2nc3ccccc3[nH]c2=O)c(=O)c1C#N', 'A549/ATCC NSCLC', 96.9),
  ('COc1ccc(/C(C)=N/NC(=O)CSc2nc3ccccc3c(=O)n2Cc2ccc(S(N)(=O)=O)cc2)c(OC)c1', 'A549/ATCC NSCLC', 102);

// provenance: PubChem BioAssay (NCI)
